EXPERIMENTAL SYSTEM: PDZD7 P1P2 (81-313) (Mus musculus, UniProt E9Q9W7)
Construct: PDZ2ext (206-313), P1P2 (81-313); GST (followed by TEV site) (N, cleaved yes); made in house; host or cells: E. coli BL21 DE3
Sequence (E9Q9W7 81-313): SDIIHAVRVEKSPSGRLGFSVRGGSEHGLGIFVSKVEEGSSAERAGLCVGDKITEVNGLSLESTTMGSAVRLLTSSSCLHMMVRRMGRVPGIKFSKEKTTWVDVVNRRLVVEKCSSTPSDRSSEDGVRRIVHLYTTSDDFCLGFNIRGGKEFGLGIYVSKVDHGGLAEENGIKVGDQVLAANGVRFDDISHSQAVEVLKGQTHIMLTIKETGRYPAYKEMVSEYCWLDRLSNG
ASSAY TEXT: Fluorescence titration of PDZ tandem P1P2
Format: binding, murine
MEASUREMENT CONDITIONS: fluorescence titration (Trp, ex 295 nm, em 346-349 nm); P1P2 2 µM in Phosphate Buffer pH 6.6 (50 mM); error from quality of fit
Where no end group is shown, it is not given here.
QUANTITY: pKd
Answers are plain numbers, as −log10 of the molar value.

Dear colleague, I am looking for the recorded pKd of the following sequence: VELRRIPIADTHL [ADGRV1pbm] 5.80

Reference for the values: paper PMC9274004
